molecular target: Son of sevenless homolog 1 (Homo sapiens); assay: Agonist activity at SOS1 in human HeLa cells expressing wild type KRAS assessed as increase in p-ERK level incubated for 30 mins by Western blot analysis
Sequence (Q07889 whole entry): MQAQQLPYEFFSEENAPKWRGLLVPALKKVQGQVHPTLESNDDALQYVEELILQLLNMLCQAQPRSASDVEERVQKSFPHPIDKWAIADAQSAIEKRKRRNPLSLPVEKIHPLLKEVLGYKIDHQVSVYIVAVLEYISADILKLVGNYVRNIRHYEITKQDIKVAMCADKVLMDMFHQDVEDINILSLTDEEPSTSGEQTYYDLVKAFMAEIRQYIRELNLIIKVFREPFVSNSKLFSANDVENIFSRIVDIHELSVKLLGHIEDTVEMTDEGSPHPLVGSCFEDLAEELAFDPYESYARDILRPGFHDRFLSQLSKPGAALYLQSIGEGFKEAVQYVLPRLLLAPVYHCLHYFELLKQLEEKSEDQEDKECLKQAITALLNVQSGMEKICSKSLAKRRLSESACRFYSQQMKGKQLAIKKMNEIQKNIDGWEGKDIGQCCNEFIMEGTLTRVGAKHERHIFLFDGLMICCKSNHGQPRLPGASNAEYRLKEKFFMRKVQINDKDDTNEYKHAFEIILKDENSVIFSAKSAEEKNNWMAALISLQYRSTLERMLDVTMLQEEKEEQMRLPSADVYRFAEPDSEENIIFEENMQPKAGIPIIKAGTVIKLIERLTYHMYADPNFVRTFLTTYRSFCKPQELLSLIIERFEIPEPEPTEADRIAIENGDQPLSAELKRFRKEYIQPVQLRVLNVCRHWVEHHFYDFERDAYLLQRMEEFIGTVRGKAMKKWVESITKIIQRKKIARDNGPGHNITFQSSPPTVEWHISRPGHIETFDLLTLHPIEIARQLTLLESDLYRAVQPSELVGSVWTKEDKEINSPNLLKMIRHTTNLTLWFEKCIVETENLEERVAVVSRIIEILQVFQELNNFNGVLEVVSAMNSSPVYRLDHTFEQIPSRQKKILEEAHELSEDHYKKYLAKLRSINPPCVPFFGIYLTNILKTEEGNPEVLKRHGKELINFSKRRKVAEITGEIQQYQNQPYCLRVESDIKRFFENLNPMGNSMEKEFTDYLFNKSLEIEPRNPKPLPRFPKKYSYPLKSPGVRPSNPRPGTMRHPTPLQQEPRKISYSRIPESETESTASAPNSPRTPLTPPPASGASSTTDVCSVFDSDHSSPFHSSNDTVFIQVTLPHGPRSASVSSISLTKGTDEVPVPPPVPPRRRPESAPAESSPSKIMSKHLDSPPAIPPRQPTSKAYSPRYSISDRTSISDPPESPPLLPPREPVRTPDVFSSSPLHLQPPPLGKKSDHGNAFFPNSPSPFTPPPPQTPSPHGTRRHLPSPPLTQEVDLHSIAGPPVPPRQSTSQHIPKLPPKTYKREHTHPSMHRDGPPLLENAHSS
pEC50: −log10 of the molar value.
Endpoint name: pEC50

Which pEC50 value belongs to "C=CC(=O)N1CC2(CC(n3nc(-c4ccc5c(cnn5C)c4)c4cc(-c5c[nH]nc5C)c(Cl)cc43)C2)C1" ? 4.85

Bench note: what pEC50 did "C=CC(=O)N1CC2(CC(n3nc(C(=O)Nc4ccc5[nH]ncc5c4)c4cc(-c5cn[nH]c5)ccc43)C2)C1" show? < 4.70

Can you share its pEC50? I mean this compound: "C=CC(=O)N1CC2(CC(n3nc(C(=O)N4CCc5cc(OC)ccc5C4)c4ccccc43)C2)C1" < 4.70

Can you share its pEC50? I mean this compound: "C=CC(=O)N1CC2(CC(n3nc(-c4ccc5c(cnn5C)c4)c4cc(-c5cn[nH]c5)ccc43)C2)C1" 5.05

Request the reported pEC50 associated with "C=CC(=O)N1CC2(CC(n3nc(C(=O)Nc4ccc5[nH]ncc5c4)c4ccccc43)C2)C1" < 4.70

# pEC50 lookup, item "Cn1ncc2cc(NC(=O)c3nn(C4CC5(CNC5)C4)c4ccc(-c5cn[nH]c5)cc34)ccc21" < 4.70

Name the reported pEC50 value associated with the compound "C=CC(=O)N1CC2(CC(n3nc(C(=O)Nc4ccc5c(cnn5C)c4)c4cc(-c5cn[nH]c5)ccc43)C2)C1" 5.82

For the compound "C=CC(=O)N1CC2(CC(n3nc(C(=O)Nc4ccc5cnn(C)c5c4)c4cc(-c5cn[nH]c5)ccc43)C2)C1" , what pEC50 is on record? 5.26

For the compound "Cn1cc(-c2ccc3c(c2)c(-c2ccc4c(cnn4C)c2)nn3C2CC3(CNC3)C2)cn1" , what pEC50 is on record? < 4.70

Which pEC50 is reported for this compound? "Cn1ncc2cc(-c3nn(C4CC5(CNC5)C4)c4ccc(-c5cn[nH]c5)cc34)ccc21" < 4.70

What value of pEC50 has been recorded for this entry: "CCC(=O)N1CC2(CC(n3nc(C(=O)Nc4ccc5c(cnn5C)c4)c4cc(-c5cn[nH]c5)ccc43)C2)C1" 5.36

// returns reported pEC50 for input "C=CC(=O)N1CC2(CC(n3nc(C(=O)Nc4ccc5c(cnn5C)c4)c4ccccc43)C2)C1" < 4.70

Give the measured pEC50 of "C=CC(=O)N1CC2(CC(n3nc(C(=O)N4CCCc5cc(OC)ccc54)c4ccccc43)C2)C1" . < 4.70
